Reported selectivity ratio values follow for various molecules
Test: Therapeutic index, ratio of IC50 for human HepG2(2.2.15) cells to IC50 for HBV
Type: cell-based
Test Settings: read-out: Ratio IC50

Below: 3 molecules and their reported selectivity ratio.
| Molecule | selectivity ratio |
| --- | --- |
| CC1(C)CC(=O)C2=C(C1)NC(c1cccnc1)=NC2c1ccc(F)cc1 (stereo not given) | 5.73 |
| O=C1CCCC2=C1C(c1ccc(F)cc1Cl)N=C(c1cnccn1)N2 (stereo not given) | 338 |
| O=C1CCCC2=C1C(c1ccc(F)cc1Cl)N=C(c1ncccc1F)N2 (stereo not given) | 1240 |

Give selectivity ratio for CC1(C)CC(=O)C2=C(C1)NC(c1nccs1)=NC2c1ccc(F)cc1Cl (stereo not given)
19.2

Please look at this molecule and report its selectivity ratio: CC1(C)CC(=O)C2=C(C1)NC(c1cnccn1)=NC2c1ccc(F)cc1Cl (stereo not given)
54.5

---

Test: Cytotoxicity against human HepG2(2.2.15) cells
Format: cell-based
Value Kind: IC50 (µM)
# output: bare number, implied unit µM

Answer with the recorded IC50 of CC1(C)CC(=O)C2=C(C1)NC(c1cnccn1)=NC2c1ccccc1Cl (stereo unspecified) only.
623

Quick one: give measured IC50 for O=C1CCCC2=C1C(c1ccc(F)cc1Cl)N=C(c1ccncc1)N2 (stereo unspecified)
142

Indicate its recorded IC50; the compound in question is O=C1CCCC2=C1C(c1ccc(F)cc1Cl)N=C(c1nccs1)N2 (stereo unspecified)
47.7

Fill in IC50 for record O=C1CCCC2=C1C(c1ccc(F)cc1Cl)N=C(c1cnccn1)N2 (stereo unspecified)
777

---

Catalogue of selectivity ratio values
Test: Therapeutic index, ratio of IC50 for human HepG2(2.2.15) cells to IC50 for HBV
Assay type: cell-based
Test Settings: read-out: Ratio IC50
No unit in the answer, please; the number alone is enough.

// below: answered molecules
| Molecule | selectivity ratio |
| --- | --- |
| CC1(C)CC(=O)C2=C(C1)NC(c1cccnc1)=NC2c1ccccc1 (centres undefined) | 7.74 |
| O=C1CCCC2=C1C(c1ccc(F)cc1Cl)N=C(c1ccccn1)N2 (centres undefined) | 144 |
| O=C1CCCC2=C1C(c1ccccc1)N=C(c1ccccn1)N2 (centres undefined) | 86.6 |

Please look at this molecule and report its selectivity ratio: CC1(C)CC(=O)C2=C(C1)NC(c1ccncc1)=NC2c1ccc(F)cc1Cl (centres undefined)
27.3

Name the recorded selectivity ratio of the molecule listed here: CC1(C)CC(=O)C2=C(C1)NC(c1ncc(F)cc1F)=NC2c1ccc(F)cc1Cl (centres undefined)
39.2

Please give the documented selectivity ratio of CC1(C)CC(=O)C2=C(C1)NC(c1cccnc1)=NC2c1ccc(F)cc1Cl (centres undefined)
1420

Note down selectivity ratio recorded for CC1(C)CC(=O)C2=C(C1)NC(c1cccnc1)=NC2c1ccccc1Cl (centres undefined)
2.56

Return reported selectivity ratio. Input molecule: O=C1CCCC2=C1C(c1ccc(F)cc1Cl)N=C(c1ccncc1)N2 (centres undefined)
8.6

State its selectivity ratio for this molecule: O=C1CCCC2=C1C(c1ccc(F)cc1Cl)N=C(c1nccs1)N2 (centres undefined)
5.73

---

pIC50 listing for selected molecules.
Test: Cytotoxicity against human HepG2(2.2.15) cells
Format: cell-based
Convention used: pIC50 is expressed as -log10 of the molar concentration.

| Molecule | Value Kind | Measured Value |
| --- | --- | --- |
| CC1(C)CC(=O)C2=C(C1)NC(c1c(F)cc(F)cc1F)=NC2c1ccc(F)cc1Cl (configuration not stated) | pIC50 | 5.25 |
| O=C1CCCC2=C1C(c1ccc(F)cc1Cl)N=C(c1c(F)cc(F)cc1F)N2 (configuration not stated) | pIC50 | 3.91 |

Identify measured pIC50 associated with O=C1CCCC2=C1C(c1ccccc1)N=C(c1ccccn1)N2 (configuration not stated)
3.24

Look up and state reported pIC50 for O=C1CCCC2=C1C(c1ccc(F)cc1Cl)N=C(c1ncccc1F)N2 (configuration not stated)
2.86

From: ChEMBL document CHEMBL1153099
